pIC50 values by entry
MEASUREMENT_TARGET: FGFR4 V550L kinase (Homo sapiens, UniProt P22455, V550L)
Sequence (P22455 22-802 V550L): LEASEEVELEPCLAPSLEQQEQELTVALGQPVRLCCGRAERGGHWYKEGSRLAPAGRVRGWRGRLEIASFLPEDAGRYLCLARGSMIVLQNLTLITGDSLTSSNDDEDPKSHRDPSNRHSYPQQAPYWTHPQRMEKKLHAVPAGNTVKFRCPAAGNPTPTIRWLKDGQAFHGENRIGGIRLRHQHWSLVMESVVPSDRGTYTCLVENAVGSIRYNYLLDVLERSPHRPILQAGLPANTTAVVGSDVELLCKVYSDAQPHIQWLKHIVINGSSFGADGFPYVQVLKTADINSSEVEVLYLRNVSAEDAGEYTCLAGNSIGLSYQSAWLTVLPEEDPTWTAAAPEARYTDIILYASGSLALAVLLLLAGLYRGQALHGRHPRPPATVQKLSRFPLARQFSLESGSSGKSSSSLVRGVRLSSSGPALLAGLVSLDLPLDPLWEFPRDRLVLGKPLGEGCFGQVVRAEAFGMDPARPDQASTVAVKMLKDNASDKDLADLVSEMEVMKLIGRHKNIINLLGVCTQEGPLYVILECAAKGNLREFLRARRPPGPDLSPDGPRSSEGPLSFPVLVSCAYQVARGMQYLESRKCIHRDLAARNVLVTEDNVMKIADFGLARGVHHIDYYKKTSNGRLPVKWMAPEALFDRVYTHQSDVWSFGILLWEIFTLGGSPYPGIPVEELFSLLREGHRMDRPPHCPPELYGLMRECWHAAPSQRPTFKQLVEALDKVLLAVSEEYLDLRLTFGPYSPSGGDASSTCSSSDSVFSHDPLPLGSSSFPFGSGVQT
MEASUREMENT_DESCRIPTION: Inhibition of FGFR4 V550L mutant kinase activity (ULight-labeled PolyGT, EU665/EU615 reading)
Assay type: biochemical
TEST_CONDITIONS: FGFR4 V550L kinase 1 nM, ATP 10 μM, enzymatic reaction 2 hours
pIC50: −log10 of the molar value.

The examples below pair each entry with its known result.
COMPOUND	pIC50
C=CC(=O)Nc1cc(N2CCC(N3CCCC3)CC2)ccc1Nc1ncc(C#N)c(Nc2ccccc2OC(C)C)n1 [Example 3]	≥ 8.00
C=CC(=O)Nc1cc(N2CCC(N3CCC(O)CC3)CC2)ccc1Nc1ncc(C#N)c(Nc2ccccc2OC(C)C)n1 [Example 65]	≥ 8.00
C=CC(=O)Nc1cc(N2CCC(N3CCN(C)CC3)CC2)ccc1Nc1ncc(C#N)c(Nc2ccccc2S(=O)(=O)C(C)C)n1 [Example 80]	≥ 8.00

State the recorded pIC50 for this entry: C=CC(=O)Nc1cc(N2CCN(CC)CC2)ccc1Nc1ncc(C#N)c(Nc2ccc(C(F)(F)F)cc2OC(C)C)n1 [Example 34]
7.30 to 8.00

# get_value(readout='pIC50', item= C=CC(=O)Nc1cc(N2CCN(CC)CC2)ccc1Nc1ncc(C#N)c(Nc2ccc(OCCOC)cc2OC(C)C)n1 [Example 33] )
7.30 to 8.00

====

# reported GI50; entries follow
MEASUREMENT_TARGET: Ba/F3 ETV6-FGFR4 cells (Homo sapiens, UniProt P22455)
Construct: fused on or other part: N-terminal part of ETV6 (TEL), the oligomerising partner that makes the FGFR4 kinase constitutively active; P41212 (Transcription factor ETV6)
Sequence (P22455 whole entry, change not shown, the tested form may be a part): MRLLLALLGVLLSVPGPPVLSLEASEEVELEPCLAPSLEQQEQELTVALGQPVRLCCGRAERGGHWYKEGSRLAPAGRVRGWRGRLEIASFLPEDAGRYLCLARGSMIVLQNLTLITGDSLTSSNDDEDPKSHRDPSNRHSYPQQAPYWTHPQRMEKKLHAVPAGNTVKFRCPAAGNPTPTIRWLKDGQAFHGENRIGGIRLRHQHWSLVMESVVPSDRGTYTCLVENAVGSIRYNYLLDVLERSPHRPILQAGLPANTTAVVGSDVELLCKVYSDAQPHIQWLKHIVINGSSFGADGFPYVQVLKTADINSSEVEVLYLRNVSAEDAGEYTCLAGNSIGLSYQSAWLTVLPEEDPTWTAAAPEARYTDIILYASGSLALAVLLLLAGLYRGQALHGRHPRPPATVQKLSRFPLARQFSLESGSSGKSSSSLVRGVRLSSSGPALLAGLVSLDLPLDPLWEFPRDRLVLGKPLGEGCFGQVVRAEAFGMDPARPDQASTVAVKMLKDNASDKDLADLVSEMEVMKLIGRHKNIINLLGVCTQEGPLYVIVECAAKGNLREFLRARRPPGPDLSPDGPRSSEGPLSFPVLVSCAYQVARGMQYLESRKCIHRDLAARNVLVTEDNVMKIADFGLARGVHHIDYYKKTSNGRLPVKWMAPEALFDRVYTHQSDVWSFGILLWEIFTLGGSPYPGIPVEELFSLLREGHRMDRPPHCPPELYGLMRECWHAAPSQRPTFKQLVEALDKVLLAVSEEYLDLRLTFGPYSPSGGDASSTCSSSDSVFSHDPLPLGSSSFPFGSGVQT
MEASUREMENT_DESCRIPTION: Inhibition of cell proliferation (CCK-8), Ba/F3 ETV6-FGFR4 cells
Assay type: cell-based
TEST_CONDITIONS: 72 hours of incubation, read-out: Ba/F3 ETV6-FGFR4 IC50

Solved cases (6 shown):
MOLECULE	READOUT_LABEL	VALUE_OBSERVED
C=CC(=O)Nc1cc(N2CCC(N3CCC(C)(O)CC3)CC2)ccc1Nc1ncc(C#N)c(Nc2ccccc2OC(C)C)n1	GI50	≤ 0.01 µM
C=CC(=O)Nc1cc(N2CCC(N3CCN(C)CC3)CC2)ccc1Nc1ncc(C#N)c(Nc2ccc(C(N)=O)cc2OC(C)C)n1	GI50	0.1 to 1 µM
C=CC(=O)Nc1cc(N2CCN(CC)CC2)ccc1Nc1ncc(C#N)c(Nc2c(C)cccc2OC(C)C)n1	GI50	0.1 to 1 µM
C=CC(=O)Nc1cc(N2CCN(CC)CC2)c(C)cc1Nc1ncc(C#N)c(Nc2ccccc2OC(C)C)n1	GI50	≤ 0.01 µM
C=CC(=O)Nc1cc(N2CCN(CC)CC2)ccc1Nc1ncc(C#N)c(Nc2cc(C)ccc2OC(C)C)n1	GI50	0.01 to 0.05 µM
C=CC(=O)Nc1cc(N2CCC(N3CCN(C)CC3)CC2)ccc1Nc1ncc(C#N)c(Nc2ccc(F)cc2OC(C)C)n1	GI50	≤ 0.01 µM

Next item in the queue.
Suppose we examine the molecule C=CC(=O)Nc1cc(N2CCN(CC)CC2)ccc1Nc1ncc(C#N)c(Nc2ccc(F)cc2OC(C)C)n1 ; what GI50 value has been reported?
≤ 0.01 µM

====

Quick reference for IC50 among some molecules
MEASUREMENT_TARGET: FGFR4 V550L kinase (Homo sapiens, UniProt P22455, V550L)
MEASUREMENT_DESCRIPTION: Inhibition of FGFR4 V550L mutant kinase activity (ULight-labeled PolyGT, EU665/EU615 reading)
TEST_CONDITIONS: FGFR4 V550L kinase 1 nM, ATP 10 μM, enzymatic reaction 2 hours
Description: Assay of activity of small molecule compounds on inhibiting FGFR4 kinase and FGFR4 V550L mutant kinase. The assay method was as follows: 1) Dilution of Compounds: […] 9) The 384-well plate was placed into a plate reader, and the signal was detected using the appropriate program. […] The corresponding IC50 can be calculated by inputting the drug concentrations and corresponding inhibition rates into GraphPad Prism 5 and processing. […]

MOLECULE	READOUT_LABEL	VALUE_OBSERVED
C=CC(=O)Nc1cc(N2CCN(CC)CC2)ccc1Nc1ncc(C#N)c(Nc2ccc(C)cc2OC(C)C)n1	IC50	≤ 10 nM

Reported IC50 for C=CC(=O)Nc1cc(N2CCN(CC)CC2)ccc1Nc1ncc(C#N)c(Nc2ccc(F)cc2OC(C)C)n1 : what is it?
≤ 10 nM

Consider the molecule shown here: C=CC(=O)Nc1cc(N2CCC(N3CCN(CCO)CC3)CC2)ccc1Nc1ncc(C#N)c(Nc2ccccc2OC(C)C)n1 What is its recorded IC50?
≤ 10 nM

May I ask what IC50 has been recorded for C=CC(=O)Nc1cc(N2CCC(N3CCN(C)CC3)CC2)c(F)cc1Nc1ncc(C#N)c(Nc2ccc(F)cc2OC(C)C)n1 ?
10 to 50 nM

So what's the measured IC50 for this one? C=CC(=O)Nc1cc(N(C)CCN(C)C)c(OC)cc1Nc1ncc(C#N)c(Nc2ccccc2OC(C)C)n1
≤ 10 nM

Returns the measured IC50 for the input molecule. Input: C=CC(=O)Nc1cc(N2CCN(CC)CC2)ccc1Nc1ncc(C#N)c(Nc2ccc(S(C)(=O)=O)cc2OC(C)C)n1
10 to 50 nM

Would you mind telling me what IC50 value was observed for C=CC(=O)Nc1cc(N2CCC(N3CCN(C)C(=O)C3)CC2)ccc1Nc1ncc(C#N)c(Nc2ccc(F)cc2OC(C)C)n1 ?
10 to 50 nM

====

FGFR4 kinase (Homo sapiens) data, read-out IC50

Below: 5 compounds and their reported IC50.
COMPOUND	VALUE_OBSERVED
C=CC(=O)Nc1cc(N2CCC(N(C)CCCS(C)(=O)=O)CC2)ccc1Nc1ncc(C#N)c(Nc2ccccc2OC(C)C)n1 [Example 75]	≤ 10 nM
C=CC(=O)Nc1cc(N2CCC(N(C)CCF)CC2)ccc1Nc1ncc(C#N)c(Nc2ccccc2OC(C)C)n1 [Example 61]	10 to 50 nM
C=CC(=O)Nc1cc(N2CCC(N3CCN(C)CC3)CC2)c(F)cc1Nc1ncc(C#N)c(Nc2ccc(F)cc2OC(C)C)n1 [Example 40]	10 to 50 nM
C=CC(=O)Nc1cc(N2CCC(N(C)CCSC)CC2)ccc1Nc1ncc(C#N)c(Nc2ccccc2OC(C)C)n1 [Example 73]	≤ 10 nM
C=CC(=O)Nc1cc(N2CCC(N3CCN(C)CC3)CC2)ccc1Nc1ncc(C#N)c(Nc2ccccc2SC(C)C)n1 [Example 81]	≤ 10 nM

Fill in the recorded IC50 for this compound, with FGFR4 kinase (Homo sapiens) as test system: C=CC(=O)Nc1cc(N2CCC(N3CCCC3)CC2)c(F)cc1Nc1ncc(C#N)c(Nc2ccccc2OC(C)C)n1 [Example 17]
10 to 50 nM

Notebook: pull reported IC50 for FGFR4 kinase (Homo sapiens), entry C=CC(=O)Nc1cc(N2CCC(N3CCC(F)(F)CC3)CC2)ccc1Nc1ncc(C#N)c(Nc2ccccc2OC(C)C)n1 [Example 71]
≤ 10 nM

Form field: IC50 recorded for C=CC(=O)Nc1cc(N2CCC(N3CCN(C)C(=O)C3)CC2)ccc1Nc1ncc(C#N)c(Nc2ccc(F)cc2OC(C)C)n1 [Example 45] with FGFR4 kinase (Homo sapiens) (enter value)
10 to 50 nM

====

MEASUREMENT_TARGET: FGFR4 V550L kinase (Homo sapiens, UniProt P22455, V550L)
MEASUREMENT_DESCRIPTION: Inhibition of FGFR4 V550L mutant kinase activity (ULight-labeled PolyGT, EU665/EU615 reading)
TEST_CONDITIONS: FGFR4 V550L kinase 1 nM, ATP 10 μM, enzymatic reaction 2 hours
pIC50: −log10 of the molar value.
READOUT_LABEL: pIC50

Solved entries:
MOLECULE	pIC50
C=CC(=O)Nc1cc(N2CCC(N3CCN(C)CC3)CC2)ccc1Nc1ncc(C#N)c(Nc2ccccc2OC(C)C)n1 [Example 6]	≥ 8.00
C=CC(=O)Nc1cc(N2CCC(N3CCN(C)CC3=O)CC2)ccc1Nc1ncc(C#N)c(Nc2ccccc2OC(C)C)n1 [Example 46]	7.30 to 8.00
C=CC(=O)Nc1cc(N2CCC(N3CCN(C)CC3=O)CC2)ccc1Nc1ncc(C#N)c(Nc2ccc(F)cc2OC(C)C)n1 [Example 47]	7.30 to 8.00

Request: pIC50, test system FGFR4 V550L kinase (Homo sapiens, UniProt P22455, V550L), entry C=CC(=O)Nc1cc(N2CCC(N3CCN(C(C)=O)CC3)CC2)ccc1Nc1ncc(C#N)c(Nc2ccccc2OC(C)C)n1 [Example 50]
≥ 8.00

Requested read-out pIC50, target or system FGFR4 V550L kinase (Homo sapiens, UniProt P22455, V550L), entry C=CC(=O)Nc1cc(N2CCC(N(C)CC(C)(C)O)CC2)ccc1Nc1ncc(C#N)c(Nc2ccccc2OC(C)C)n1 [Example 67]
≥ 8.00

Form: Entry = C=CC(=O)Nc1cc(N2CCC(N(C)C)CC2)c(C)cc1Nc1ncc(C#N)c(Nc2ccccc2OC(C)C)n1 [Example 9] | System = FGFR4 V550L kinase (Homo sapiens, UniProt P22455, V550L) | pIC50 = ____
7.30 to 8.00

Lab request: please report pIC50 under test system FGFR4 V550L kinase (Homo sapiens, UniProt P22455, V550L) for C=CC(=O)Nc1cc(N2CCC(N3CCN(C)CC3)CC2)c(OC)cc1Nc1ncc(C#N)c(Nc2ccccc2OC(C)C)n1 [Example 53]
≥ 8.00

Lab note: need pIC50 with FGFR4 V550L kinase (Homo sapiens, UniProt P22455, V550L) for entry C=CC(=O)Nc1cc(N2CCC(N3CCN(CCOC)CC3)CC2)ccc1Nc1ncc(C#N)c(Nc2ccccc2OC(C)C)n1 [Example 58] , please look it up.
≥ 8.00

Which measured pIC50 belongs to C=CC(=O)Nc1cc(N2CCC(N3CCC(C#N)CC3)CC2)ccc1Nc1ncc(C#N)c(Nc2ccccc2OC(C)C)n1 [Example 66] , tested on FGFR4 V550L kinase (Homo sapiens, UniProt P22455, V550L)?
7.30 to 8.00

Notebook entry, FGFR4 V550L kinase (Homo sapiens, UniProt P22455, V550L) assay: pIC50 of C=CC(=O)Nc1cc(N2CCN(CC)CC2)c(C)cc1Nc1ncc(C#N)c(Nc2ccccc2OC(C)C)n1 [Example 8] = ?
≥ 8.00

Given the entry C=CC(=O)Nc1cc(N2CCC(N3CCCCC3)CC2)ccc1Nc1ncc(C#N)c(Nc2ccccc2OC(C)C)n1 [Example 4] , what pIC50 was observed with FGFR4 V550L kinase (Homo sapiens, UniProt P22455, V550L)?
≥ 8.00

Give FGFR4 V550L kinase (Homo sapiens, UniProt P22455, V550L) pIC50 for C=CC(=O)Nc1cc(N2CCC(N(C)CCN(C)C)CC2)ccc1Nc1ncc(C#N)c(Nc2ccccc2OC(C)C)n1 [Example 57]
≥ 8.00

Quick check: pIC50 on FGFR4 V550L kinase (Homo sapiens, UniProt P22455, V550L), item C=CC(=O)Nc1cc(N2CCN(CC)CC2)ccc1Nc1ncc(C#N)c(Nc2ccc(CCC)cc2OC(C)C)n1 [Example 38] ?
7.00 to 7.30
